target: Rap guanine nucleotide exchange factor 4 (Homo sapiens); assay: Confirmatory qHTS for antagonist of cAMP-regulated guanine nucleotide exchange factor 4 (EPAC2) (AID 1645885); settings: EPAC2 Rap1B-BODIPY-GDP exchange fluorescence, biochemical; series mostly up to 12.7 µM; further: nearly all actives have a fitted effect of over 25% in size; further: potency means the concentration at half of the fitted maximal effect
Inconclusive results are not listed. Activity calls are given as the source filed them. The call rests on the fitted dose curve; in most records, active means well fitted inhibition curve with a large enough effect; inconclusive means small, poorly fitted or top-dose-only effect; inactive means no such curve, though single readings can be large or run the other way.
MEASURED PROPERTY: Potency

{"columns": ["COMPOUND", "ASSAY SYSTEM", "RESULT"],
 "data": [
  ["COc1ccc(OC)c(NC(=O)C2(C)CCN2CCc2ccccc2)c1 (stereo unspecified)", "Rap guanine nucleotide exchange factor 4 (Homo sapiens)", "42.6 µM (active)"],
  ["Cc1cccc(S(=O)(=O)Nc2ccc(S(=O)(=O)Nc3nccs3)cc2)c1", "Rap guanine nucleotide exchange factor 4 (Homo sapiens)", "75.7 µM (active)"],
  ["CC[C@@H]1CC=C[C@H]2[C@H]1C(=O)N(Cc1ccccc1)[C@H]2c1ccc(C(F)(F)F)cc1", "Rap guanine nucleotide exchange factor 4 (Homo sapiens)", "inactive"],
  ["Cc1ccc(OCCn2c(=O)n(C)c3ccccc32)cc1", "Rap guanine nucleotide exchange factor 4 (Homo sapiens)", "67.5 µM (active)"],
  ["O=S(=O)(N/N=C/c1cccnc1)c1ccc(Cl)c(Cl)c1", "Rap guanine nucleotide exchange factor 4 (Homo sapiens)", "inactive"],
  ["Cc1ccc(C)c(OC(C)C(=O)Nc2ccc(S(=O)(=O)Nc3nccs3)cc2)c1 (stereo unspecified)", "Rap guanine nucleotide exchange factor 4 (Homo sapiens)", "33.8 µM (active)"],
  ["N#CCCN(CCC#N)S(=O)(=O)c1ccc(C(=O)Nc2nnc(C3=COCCO3)o2)cc1", "Rap guanine nucleotide exchange factor 4 (Homo sapiens)", "inactive"],
  ["CC1OC(CC(=O)O)CC2=C1C(=O)c1c(O)cccc1C2=O (stereo unspecified)", "Rap guanine nucleotide exchange factor 4 (Homo sapiens)", "inactive"],
  ["Cc1ccc(-c2csc3ncnc(Nc4ccc(C(=O)O)cc4)c23)cc1", "Rap guanine nucleotide exchange factor 4 (Homo sapiens)", "inactive"],
  ["CC1=CC(C)(C)N2C(=O)C(=Nc3ccc(O)cc3)c3cccc1c32", "Rap guanine nucleotide exchange factor 4 (Homo sapiens)", "inactive"],
  ["COc1ccccc1N1CCN(S(=O)(=O)c2ccc3c(c2)NC(=O)C(C)C(=O)N3)CC1 (stereo unspecified)", "Rap guanine nucleotide exchange factor 4 (Homo sapiens)", "inactive"],
  ["NC(=O)C1CCN(C(=O)c2ccc3c(=O)n(Cc4cccc(Br)c4)c(=S)[nH]c3c2)CC1", "Rap guanine nucleotide exchange factor 4 (Homo sapiens)", "inactive"],
  ["COc1ccccc1N1CCN(C(=O)c2ccc(S(=O)(=O)N3CCCC3)cc2)CC1", "Rap guanine nucleotide exchange factor 4 (Homo sapiens)", "inactive"],
  ["CCOc1cc(/C=N/NC(=O)c2ccc(-c3csc(Nc4ccc(C)cc4)n3)cc2)ccc1OCC(=O)O", "Rap guanine nucleotide exchange factor 4 (Homo sapiens)", "inactive"],
  ["Cc1ccc2oc(=O)c(/C=C(\\O)c3ccccc3)nc2c1", "Rap guanine nucleotide exchange factor 4 (Homo sapiens)", "inactive"],
  ["O=C1CCN2C=Nc3cccc4ccc1c2c34", "Rap guanine nucleotide exchange factor 4 (Homo sapiens)", "inactive"],
  ["O=C(O)C(Cc1c[nH]c2ccccc12)NS(=O)(=O)c1ccc(Cl)c(C(F)(F)F)c1 (stereo unspecified)", "Rap guanine nucleotide exchange factor 4 (Homo sapiens)", "inactive"],
  ["CC(/C=C1\\SC(=S)N(CCC(=O)Nc2cccc(C(=O)O)c2)C1=O)=C\\c1ccccc1", "Rap guanine nucleotide exchange factor 4 (Homo sapiens)", "inactive"],
  ["CCOc1cc(-c2c(C#N)c(N)nc3c2CCCC3C)ccc1O (stereo unspecified)", "Rap guanine nucleotide exchange factor 4 (Homo sapiens)", "inactive"],
  ["O=C(O)c1ccc(/C=N/NC(=O)c2cc(-c3ccc4c5c(cccc35)CC4)n[nH]2)cc1", "Rap guanine nucleotide exchange factor 4 (Homo sapiens)", "inactive"],
  ["CCC(C)n1c(=N)c(C#N)cc2c(=O)n3ccccc3nc21 (stereo unspecified)", "Rap guanine nucleotide exchange factor 4 (Homo sapiens)", "inactive"]
]}

The values you see were collected from PubChem BioAssay (NCATS).
